# tested_on: Ret(V804M)(h) (Homo sapiens, UniProt P07949, V804M)
# Sequence (P07949 29-1114 V804M): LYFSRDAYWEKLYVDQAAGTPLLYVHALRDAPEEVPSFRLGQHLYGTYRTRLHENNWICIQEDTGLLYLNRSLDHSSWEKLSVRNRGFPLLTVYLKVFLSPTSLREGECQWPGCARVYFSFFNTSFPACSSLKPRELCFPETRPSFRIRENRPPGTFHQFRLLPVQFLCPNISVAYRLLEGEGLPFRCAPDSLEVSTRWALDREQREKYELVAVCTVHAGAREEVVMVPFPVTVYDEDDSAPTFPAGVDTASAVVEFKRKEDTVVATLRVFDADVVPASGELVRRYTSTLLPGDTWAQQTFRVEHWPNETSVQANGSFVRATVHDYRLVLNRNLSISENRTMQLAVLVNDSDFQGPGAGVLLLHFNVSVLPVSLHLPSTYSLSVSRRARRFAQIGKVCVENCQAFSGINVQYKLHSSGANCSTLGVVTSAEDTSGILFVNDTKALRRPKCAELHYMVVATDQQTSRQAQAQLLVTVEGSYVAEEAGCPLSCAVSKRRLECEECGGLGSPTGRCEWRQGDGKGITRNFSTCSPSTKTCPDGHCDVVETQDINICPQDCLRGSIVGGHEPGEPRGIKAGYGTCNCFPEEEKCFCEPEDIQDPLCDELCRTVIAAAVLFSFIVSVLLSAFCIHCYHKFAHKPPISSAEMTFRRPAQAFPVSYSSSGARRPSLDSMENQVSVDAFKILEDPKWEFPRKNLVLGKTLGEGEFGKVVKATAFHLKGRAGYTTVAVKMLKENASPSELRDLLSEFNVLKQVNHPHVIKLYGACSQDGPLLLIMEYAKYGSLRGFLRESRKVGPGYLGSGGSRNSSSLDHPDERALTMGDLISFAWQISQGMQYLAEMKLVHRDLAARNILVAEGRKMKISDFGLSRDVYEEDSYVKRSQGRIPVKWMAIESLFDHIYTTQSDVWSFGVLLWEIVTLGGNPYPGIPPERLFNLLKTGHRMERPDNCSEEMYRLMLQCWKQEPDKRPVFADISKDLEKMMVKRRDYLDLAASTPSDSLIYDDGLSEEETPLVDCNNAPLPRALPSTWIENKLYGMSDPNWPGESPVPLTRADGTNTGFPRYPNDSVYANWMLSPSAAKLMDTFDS
# test_protocol: KinaseProfiler kinase assay
# reported_conditions: Ret(V804M mutation)
property_measured: IC50 (nM)
# unit: nM | format: bare number

q: What value of IC50 on Ret(V804M)(h) (Homo sapiens, UniProt P07949, V804M) does C/C=C/c1cc(Nc2cc(N3CCN(C)CC3)nc(Oc3ccc4[nH]c(C)cc4c3F)n2)n[nH]1 have?
a: 6

====

Kindly state inhibition at 1 µM for each of the entries shown.
# tested_on: Flt3(h) (Homo sapiens, UniProt P36888)
# Sequence (P36888 27-993): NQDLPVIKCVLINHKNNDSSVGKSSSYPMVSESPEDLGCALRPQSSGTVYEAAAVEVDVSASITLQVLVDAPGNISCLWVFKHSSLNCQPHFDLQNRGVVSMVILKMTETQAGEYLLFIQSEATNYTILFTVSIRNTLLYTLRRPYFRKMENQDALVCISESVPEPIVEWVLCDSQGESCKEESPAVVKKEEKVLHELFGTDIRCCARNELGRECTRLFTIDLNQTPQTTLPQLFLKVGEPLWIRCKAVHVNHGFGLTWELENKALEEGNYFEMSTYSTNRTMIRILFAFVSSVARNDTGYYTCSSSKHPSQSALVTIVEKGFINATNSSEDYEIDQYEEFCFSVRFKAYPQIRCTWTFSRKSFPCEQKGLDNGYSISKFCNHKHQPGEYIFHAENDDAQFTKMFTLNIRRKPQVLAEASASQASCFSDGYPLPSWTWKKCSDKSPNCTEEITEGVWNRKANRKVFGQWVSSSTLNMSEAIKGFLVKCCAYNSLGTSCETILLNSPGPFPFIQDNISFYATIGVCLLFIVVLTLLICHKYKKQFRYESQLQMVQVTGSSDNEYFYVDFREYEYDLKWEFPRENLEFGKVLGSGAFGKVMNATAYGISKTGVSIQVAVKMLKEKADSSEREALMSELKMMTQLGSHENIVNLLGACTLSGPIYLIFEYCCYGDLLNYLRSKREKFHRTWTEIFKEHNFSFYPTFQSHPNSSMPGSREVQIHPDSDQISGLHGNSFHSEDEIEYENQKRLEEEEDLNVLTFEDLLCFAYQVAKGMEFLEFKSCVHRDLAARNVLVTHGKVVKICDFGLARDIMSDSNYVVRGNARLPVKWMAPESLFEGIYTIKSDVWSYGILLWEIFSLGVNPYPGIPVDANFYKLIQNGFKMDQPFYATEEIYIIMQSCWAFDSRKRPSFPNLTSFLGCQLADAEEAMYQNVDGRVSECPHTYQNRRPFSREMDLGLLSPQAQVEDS
# test_protocol: KinaseProfiler kinase assay
# Type: biochemical
# unit: % | format: bare number

q: GET /values?readout=inhibition at 1 µM&item= Cc1cc(Nc2cc(N3CCNCC3)nc(Oc3cc(F)c4[nH]c(C)cc4c3F)n2)n[nH]1
a: 99

q: GET /values?readout=inhibition at 1 µM&item= Cc1cc2c(F)c(Oc3nc(Nc4cc(C5CC5)[nH]n4)cc(N4CCNCC4)n3)cc(F)c2[nH]1
a: 100

q: GET /values?readout=inhibition at 1 µM&item= Cc1cc2c(F)c(Oc3nc(Nc4cc(C5CC5)[nH]n4)cc(N4CCN(c5cccnc5)CC4)n3)ccc2[nH]1
a: 100

q: GET /values?readout=inhibition at 1 µM&item= Cc1cc(Nc2cc(N3CCOCC3)nc(Oc3cc(F)c4[nH]c(C)cc4c3F)n2)n[nH]1
a: 98

q: GET /values?readout=inhibition at 1 µM&item= C/C=C/c1cc(Nc2cc(N3CCC(O)C3)nc(Oc3ccc4[nH]c(C)cc4c3F)n2)n[nH]1 (stereo not shown)
a: 100

q: GET /values?readout=inhibition at 1 µM&item= Cc1cc2c(F)c(Oc3nc(Nc4cc(C5CC5)[nH]n4)cc(N4CCN(CC(F)(F)F)CC4)n3)ccc2[nH]1
a: 98

q: GET /values?readout=inhibition at 1 µM&item= C/C=C/c1cc(Nc2cc(N3CCOCC3)nc(Oc3cc(F)c4[nH]c(C)cc4c3F)n2)n[nH]1
a: 100

The measurements presented in this section are drawn from patent US10245261B2.
